From: ChEMBL document CHEMBL1143549

target: Angiopoietin-1 receptor (Homo sapiens, UniProt Q02763); assay: Inhibitory concentration against human tyrosine protein kinase receptor TIE-2
Sequence (Q02763 whole entry): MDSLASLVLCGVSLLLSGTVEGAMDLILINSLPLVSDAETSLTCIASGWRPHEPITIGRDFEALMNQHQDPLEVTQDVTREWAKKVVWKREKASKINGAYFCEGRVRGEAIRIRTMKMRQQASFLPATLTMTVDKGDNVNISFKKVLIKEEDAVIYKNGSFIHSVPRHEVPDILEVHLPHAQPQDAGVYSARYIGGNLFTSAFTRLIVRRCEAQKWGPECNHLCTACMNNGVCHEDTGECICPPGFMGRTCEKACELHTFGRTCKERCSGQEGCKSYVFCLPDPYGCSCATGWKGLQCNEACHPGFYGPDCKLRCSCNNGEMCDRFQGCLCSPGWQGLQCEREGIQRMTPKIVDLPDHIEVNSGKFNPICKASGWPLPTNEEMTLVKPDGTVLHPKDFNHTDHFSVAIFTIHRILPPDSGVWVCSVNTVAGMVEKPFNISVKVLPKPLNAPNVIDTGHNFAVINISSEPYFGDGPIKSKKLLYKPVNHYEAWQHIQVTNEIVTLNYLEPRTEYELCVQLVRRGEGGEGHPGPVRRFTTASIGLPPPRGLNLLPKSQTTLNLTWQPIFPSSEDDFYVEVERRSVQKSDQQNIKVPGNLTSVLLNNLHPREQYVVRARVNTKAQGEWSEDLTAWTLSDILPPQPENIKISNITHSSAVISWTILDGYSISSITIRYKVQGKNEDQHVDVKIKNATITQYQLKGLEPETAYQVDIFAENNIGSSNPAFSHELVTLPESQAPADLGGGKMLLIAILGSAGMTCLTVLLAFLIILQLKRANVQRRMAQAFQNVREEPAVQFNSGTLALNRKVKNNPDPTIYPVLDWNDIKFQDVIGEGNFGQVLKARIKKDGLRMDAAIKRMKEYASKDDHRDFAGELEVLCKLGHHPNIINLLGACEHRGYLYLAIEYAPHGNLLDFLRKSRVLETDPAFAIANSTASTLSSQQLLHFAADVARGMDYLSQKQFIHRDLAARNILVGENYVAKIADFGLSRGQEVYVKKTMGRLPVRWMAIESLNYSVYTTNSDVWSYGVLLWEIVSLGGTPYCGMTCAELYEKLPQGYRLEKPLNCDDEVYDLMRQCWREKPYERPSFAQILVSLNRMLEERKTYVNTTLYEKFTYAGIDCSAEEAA
pIC50: −log10 of the molar value.
The following compounds are shown together with reported pIC50 values.

Task item: What measured pIC50 is associated with `COc1ccc(-c2oc3ncnc(N)c3c2-c2cccc(NC(C)=O)c2)cc1` on Angiopoietin-1 receptor (Homo sapiens, UniProt Q02763)?
Reply: < 4.70

Task item: What is its pIC50 for Angiopoietin-1 receptor (Homo sapiens, UniProt Q02763)? Entry: COc1ccc(-c2coc3ncnc(N)c23)cc1 [GW642125X]
Reply: < 4.70

Task item: What value of pIC50 on Angiopoietin-1 receptor (Homo sapiens, UniProt Q02763) does COc1ccc(-c2cc3c(N)ncnc3o2)cc1 [GW642138X] have?
Reply: < 4.70
